Every entry's value here was drawn from patent US20250101042A1.

Overview of reported IC50 across a group of compounds:
studyTarget: GDP-loaded KRAS G12D (Homo sapiens, UniProt P01116, G12D)
Sequence (P01116 1-188 isoform P01116-2 G12D): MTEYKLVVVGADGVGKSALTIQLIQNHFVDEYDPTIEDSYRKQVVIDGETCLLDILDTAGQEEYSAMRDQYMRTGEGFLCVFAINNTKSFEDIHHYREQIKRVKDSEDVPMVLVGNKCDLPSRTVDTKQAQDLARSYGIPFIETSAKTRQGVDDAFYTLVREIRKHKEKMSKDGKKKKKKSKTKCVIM
protocolDescription: KRAS G12D (GDP) Biochemical Assay (TR-FRET probe displacement)
measurementConditions: 0.5 nM enzyme, 2 hours at room temperature
experimentalReadout: IC50 (nM)

compound	unitName	reportedRelation	observedValue
C[C@H]1Cc2nc(-c3cccc4sc(N)c(C#N)c34)c(F)c3nc(OC[C@@]45CCCN4C[C@H](F)C5)nc(c23)N2C[C@H]3CC[C@H](N3)[C@H]12	nM	=	0.45
Cc1cc(N)[n+]([O-])c(-c2nc3c4c(nc(OC[C@@]56CCCN5C[C@H](F)C6)nc4c2F)N2C[C@H]4CC[C@H](N4)[C@H]2CCC3)c1C(F)(F)F	nM	>	100
Nc1nc2c(F)ccc(-c3nc4c5c(nc(OC[C@@]67CCCN6C[C@H](F)C7)nc5c3F)N3C[C@H]5CC[C@H](N5)[C@H]3CC4)c2s1	nM	=	8.2
Cc1cc(N)nc(-c2c(F)c3c4c(nc(OC[C@@]56CCCN5C[C@H](F)C6)nc4c2F)N2C[C@H]4CC[C@H](N4)[C@H]2CC3)c1C(F)(F)F	nM	=	0.18
C#Cc1c(F)ccc2cc(N)nc(-c3c(F)c4c5c(nc(OC[C@@]67CCCN6C[C@H](F)C7)nc5c3F)N3C[C@H]5CC[C@H](N5)[C@@H]3[C@@H](C)C4)c12 (atropisomer, axis not shown; (aS))	nM	=	0.04

###

Tested on: GP2D (KRAS G12D) cells
protocolDescription: 2D Cell Viability Assay (CellTiter-Glo)
Type: cell-based
measurementConditions: 4 days, CellTiter-Glo luminescence
Listing of entries alongside the reported EC50.

compound	EC50 (nM)
Cc1cc(N)nc(-c2c(Cl)c3c4c(nc(OC[C@@]56CCCN5C[C@H](F)C6)nc4c2F)N2C[C@H]4CC[C@H](N4)[C@H]2CC3)c1C(F)(F)F (single isomer, unassigned) [Example 6]	1.2
N#Cc1c(N)sc2c(F)ccc(-c3c(F)c4c5c(nc(OC[C@@]67CCCN6C[C@H](F)C7)nc5c3F)N3C[C@H]5CC[C@H](N5)[C@H]3CC4)c12 (single isomer, unassigned) [Example 59]	24
C[C@H]1Cc2c(F)c(-c3ncc(F)c4sc(N)c(C#N)c34)c(F)c3nc(OC[C@@]45CCCN4C[C@H](F)C5)nc(c23)N2C[C@H]3CC[C@H](N3)[C@H]12 (single isomer, unassigned)	3.4
Cc1cc(N)nc(-c2c(Cl)c3c4c(nc(OC[C@@]56CCCN5C[C@H](F)C6)nc4c2F)N2C[C@H]4CC[C@H](N4)[C@H]2CC3)c1C(F)(F)F (single isomer, unassigned) [Example 5]	14
Cc1cc(N)nc(-c2c(F)c3c4c(nc(OC[C@@]56CCCN5C[C@H](F)C6)nc4c2F)N2C[C@H]4CC[C@H](N4)[C@H]2CC3)c1C(F)(F)F (single isomer, unassigned) [Example 21]	12

###

studyTarget: GDP-loaded KRAS G12D (Homo sapiens, UniProt P01116, G12D)
protocolDescription: KRAS G12D (GDP) Biochemical Assay (TR-FRET probe displacement)
measurementConditions: 0.5 nM enzyme, 2 hours at room temperature
pIC50: −log10 of the molar value.
Reported pIC50 values are given for each entry in this list.

molecule	pIC50
Cc1cc(N)nc(-c2c(Cl)c3c4c(nc(OC[C@@]56CCCN5C[C@H](F)C6)nc4c2F)N2C[C@H]4CC[C@H](N4)[C@H]2CCC3)c1C(F)(F)F (single isomer, unassigned) [Example 3]	7.06
Cc1cc(N)nc(-c2nc3c4c(nc(OC[C@@]56CCCN5C[C@H](F)C6)nc4c2F)N2C[C@H]4CC[C@H](N4)[C@@H]2[C@@H](C)C3)c1C(F)(F)F [Example 17]	8.21
Cc1cc(N)nc(-c2nc3c4c(nc(OC[C@@]56CCCN5C[C@H](F)C6)nc4c2F)N2C[C@H]4CC[C@H](N4)[C@H]2C[C@H](C)C3)c1C(F)(F)F [Example 18]	7.08

###

Tested on: GP2D (KRAS G12D) cells
protocolDescription: 2D Cell Viability Assay (CellTiter-Glo)
Format: cell-based
measurementConditions: 4 days, CellTiter-Glo luminescence
Below, each of the compounds is paired with its reported EC50 value.
experimentalReadout: EC50

compound	studyTarget	observedValue
N#Cc1c(N)sc2c(F)ccc(-c3c(F)c4c5c(nc(OC[C@@]67CCCN6C[C@H](F)C7)nc5c3F)N3C[C@H]5CC[C@H](N5)[C@H]3CC4)c12 (single isomer, unassigned) [Example 60]	GP2D (KRAS G12D) cells	1.8 nM
Cc1cc(N)nc(-c2c(F)c3c4c(nc(OC[C@@]56CCCN5C[C@H](F)C6)nc4c2F)N2C[C@H]4CC[C@H](N4)[C@H]2CC3)c1C(F)(F)F (single isomer, unassigned) [Example 22]	GP2D (KRAS G12D) cells	1.6 nM
Cc1cc(N)nc(-c2c(Cl)c3c4c(nc(OC[C@@]56CCCN5C[C@H](F)C6)nc4c2F)N2C[C@H]4CC[C@H](N4)[C@H]2CCC3)c1C(F)(F)F (single isomer, unassigned)	GP2D (KRAS G12D) cells	> 100 nM

###

studyTarget: GDP-loaded KRAS G12D (Homo sapiens, UniProt P01116, G12D)
protocolDescription: KRAS G12D (GDP) Biochemical Assay (TR-FRET probe displacement)
Format: binding
measurementConditions: 0.5 nM enzyme, 2 hours at room temperature
Catalogue of molecules with associated log10 IC50
experimentalReadout: log10 IC50 (log10 of the value in nM)

molecule	observedValue
Cc1cc(N)nc(-c2c(Cl)c3c4c(nc(OC[C@@]56CCCN5C[C@H](F)C6)nc4c2F)N2C[C@H]4CC[C@H](N4)[C@H]2CC3)c1C(F)(F)F (single isomer, unassigned) [Example 5]	0.04
Nc1cc(Cl)c(C(F)F)c(-c2nc3c4c(nc(OC[C@@]56CCCN5C[C@H](F)C6)nc4c2F)N2C[C@H]4CC[C@H](N4)[C@H]2CCC3)n1 [Example 24]	1.04
N#Cc1c(N)sc2c(F)ccc(-c3c(F)c4c5c(nc(OC[C@@]67CCCN6C[C@H](F)C7)nc5c3F)N3C[C@H]5CC[C@H](N5)[C@H]3CC4)c12 (single isomer, unassigned) [Example 59]	0.62
C#Cc1c(F)ccc2cc(N)nc(-c3c(F)c4c5c(nc(OC[C@@]67CCCN6C[C@H](F)C7)nc5c3F)N3C[C@H]5CC[C@H](N5)[C@H]3CCC4)c12 [Example 61]	-1.70
Cc1cc(N)nc(-c2c(Cl)c3c4c(nc(OC[C@@]56CCCN5C[C@H](F)C6)nc4c2F)N2C[C@H]4CC[C@H](N4)[C@H]2CC3)c1C(F)(F)F (single isomer, unassigned) [Example 6]	-1.30
C[C@H]1Cc2c(F)c(-c3ncc(F)c4sc(N)c(C#N)c34)c(F)c3nc(OC[C@@]45CCCN4C[C@H](F)C5)nc(c23)N2C[C@H]3CC[C@H](N3)[C@H]12 (single isomer, unassigned) [Example 51]	-0.10
Cc1cc(N)nc(-c2nc3c4c(nc(OC[C@@]56CCCN5C[C@H](F)C6)nc4c2F)N2C[C@H]4CC[C@H](N4)[C@H]2CC3)c1C(F)(F)F [Example 1]	-0.08
Cc1c(F)c(N)nc(-c2nc3c4c(nc(OC[C@@]56CCCN5C[C@H](F)C6)nc4c2F)N2C[C@H]4CC[C@H](N4)[C@H]2CCC3)c1C(F)(F)F [Example 11]	1.08
CCc1c(-c2nc(N)cc(C)c2C(F)(F)F)c(F)c2nc(OC[C@@]34CCCN3C[C@H](F)C4)nc3c2c1CC[C@@H]1[C@@H]2CC[C@H](CN31)N2 [Example 16]	-0.09
Cc1cc(N)nc(-c2c(Br)c3c4c(nc(OC[C@@]56CCCN5C[C@H](F)C6)nc4c2F)N2C[C@H]4CC[C@H](N4)[C@H]2CC3)c1C(F)(F)F [Example 14]	-0.62
C#Cc1c(F)ccc2cc(N)nc(-c3c(F)c4c5c(nc(OC[C@@]67CCCN6C[C@H](F)C7)nc5c3F)N3C[C@H]5CC[C@H](N5)[C@H]3CC4)c12 (atropisomer, axis not shown; (aR)) [Example 62]	-1.52
Cc1cc(N)nc(-c2c(F)c3c4c(nc(OC[C@@]56CCCN5C[C@H](F)C6)nc4c2F)N2C[C@H]4CC[C@H](N4)[C@H]2CC3)c1C(F)(F)F (single isomer, unassigned) [Example 22]	-1.10
C[C@H]1Cc2c(F)c(-c3ncc(F)c4sc(N)c(C#N)c34)c(F)c3nc(OC[C@@]45CCCN4C[C@H](F)C5)nc(c23)N2C[C@H]3CC[C@H](N3)[C@H]12 (single isomer, unassigned) [Example 50]	-0.92
C#Cc1c(F)ccc2cc(N)nc(-c3c(Cl)c4c5c(nc(OC[C@@]67CCCN6C[C@H](F)C7)nc5c3F)N3C[C@H]5CC[C@H](N5)[C@H]3CC4)c12 [Example 23]	-0.80
